Entry source: patent US8288438B2

tested_target: PPARγ (Homo sapiens, UniProt P37231)
Sequence (P37231 1-505): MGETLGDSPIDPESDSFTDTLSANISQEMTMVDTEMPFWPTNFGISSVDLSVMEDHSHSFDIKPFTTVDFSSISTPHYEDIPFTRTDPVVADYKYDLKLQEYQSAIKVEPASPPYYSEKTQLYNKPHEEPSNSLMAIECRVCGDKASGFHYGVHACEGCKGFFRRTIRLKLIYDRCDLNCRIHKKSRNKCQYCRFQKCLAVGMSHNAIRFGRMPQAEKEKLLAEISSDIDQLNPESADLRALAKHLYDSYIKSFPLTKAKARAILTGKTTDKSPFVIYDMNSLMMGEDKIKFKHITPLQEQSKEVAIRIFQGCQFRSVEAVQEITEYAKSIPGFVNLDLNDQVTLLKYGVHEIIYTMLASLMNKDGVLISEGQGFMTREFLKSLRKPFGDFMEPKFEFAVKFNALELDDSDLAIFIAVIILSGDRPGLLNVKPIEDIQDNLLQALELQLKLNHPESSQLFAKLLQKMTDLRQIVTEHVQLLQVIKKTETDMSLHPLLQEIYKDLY
procedure_text: partial agonism on PPARγ (Example 8, FIG. 6)
Type: cell-based
assay_metric: kind of PPARγ agonism

> print(dat)
                                   compound           assay.metric          observed.value
1  O=C(O)C(Oc1ccc(Cl)cc1-n1nc2ccccc2n1)c1ccccc1 (racemic)  kind of PPARγ agonism  partial PPARγ agonists
2  O=C(O)C(Oc1cccc(C(F)(F)F)c1)c1ccc(Cl)cc1 (racemic) [racemic halofenic acid, reference compound]  kind of PPARγ agonism  partial PPARγ agonists
3  CC(=O)NCCOC(=O)C(Oc1cccc(C(F)(F)F)c1)c1ccc(Cl)cc1 (single isomer, unassigned; (-)) [(−) halofenate]  kind of PPARγ agonism         partial agonist
4  O=C(O)C(Oc1cccc(C(F)(F)F)c1)c1ccc(Cl)cc1 (single isomer, unassigned; (-)) [(−)halofenic acid]  kind of PPARγ agonism         partial agonist
